Target: CDK6 (Homo sapiens (Human), UniProt Q00534)
// returns FALSE unless IC50 is strictly below 10 nM, in which case TRUE

Before answering, review these 6 worked examples.
CC(C)N1CCOc2c(F)cc(-c3nc(Nc4ccc(C5CCN(C)CC5)nc4)ncc3F)cc21 [Compound 33] | TRUE
CC1CN(c2ccc(Nc3ncc(F)c(-c4cc(F)c5c(c4)N(C(C)C)CCO5)n3)nc2)CCN1 (stereo not shown) [Compound 10] | TRUE
CC(C)N1CCOc2c(F)cc(-c3nc(Nc4ccc(C5CCN(C(=O)CO)CC5)cn4)ncc3F)cc21 [Compound 510] | TRUE
OC1CCN(c2ccc(Nc3ncc(F)c(-c4cc(F)c5c(c4)N(C4CCC4)CCO5)n3)nc2)CC1 [Compound 486] | FALSE
CC(C)N1CCOc2c(F)cc(-c3nc(Nc4ccc(N5CCN(C(=O)N(C)C)CC5)cn4)ncc3F)cc21 [Compound 453] | FALSE
CCN1CCN(C(=O)c2ccc(Nc3ncc(F)c(-c4cc(F)c5c(c4)N(C(C)C)CCO5)n3)cc2F)CC1 [Compound 464] | FALSE

Confirm or reject: IC50 of CN1CCC(c2ccc(Nc3ncc(F)c(-c4cc(F)c5c(c4)N(C4CCCC4)CCO5)n3)cc2F)CC1 [Compound 471] lies strictly below 10 nM
FALSE

Strictly below 10 nM: is that where IC50 of Fc1cnc(Nc2ccc(N3CCCNCC3)cn2)nc1-c1cc(F)c2c(c1)N(C1CCCC1)CCO2 [Compound 478] sits?
FALSE

Dear reviewer, please state whether CCCN1CCOc2c(F)cc(-c3nc(Nc4ccc(N5CCNCC5)c(F)c4)ncc3F)cc21 [Compound 36] has IC50 strictly beneath 10 nM.
TRUE

For COCCNS(=O)(=O)c1ccc(Nc2ncc(F)c(-c3cc(F)c4c(c3)N(C(C)C)CCO4)n2)cc1 [Compound 523] , is the recorded IC50 below the cut-off of 10 nM?
FALSE

Identify whether the molecule CN1CCOc2c(F)cc(-c3nc(Nc4ccc(N5CCC(N(C)C)CC5)c(F)c4)ncc3F)cc21 [Compound 467] records IC50 below 10 nM.
TRUE

Please indicate whether the reported IC50 of CC(C)N1CCOc2c(F)cc(-c3nc(Nc4ccc(N5CCNCC5)c(F)c4)ncc3Cl)cc21 [Compound 30] is strictly below 10 nM.
FALSE

Given the entry CCN1CCC(c2ccc(Nc3ncc(F)c(-c4cc(F)c5c(c4)N(C(C)C)CCO5)n3)nc2)CC1 [Compound 501] , would its reported IC50 be below 10 nM?
TRUE
